Numbers sourced from the supplement of paper PMC10065799.

- experimentalSystem: Grb2 SH2 (UniProt P62993)
- Sequence (P62993 whole entry, looked up, the tested form may be a part): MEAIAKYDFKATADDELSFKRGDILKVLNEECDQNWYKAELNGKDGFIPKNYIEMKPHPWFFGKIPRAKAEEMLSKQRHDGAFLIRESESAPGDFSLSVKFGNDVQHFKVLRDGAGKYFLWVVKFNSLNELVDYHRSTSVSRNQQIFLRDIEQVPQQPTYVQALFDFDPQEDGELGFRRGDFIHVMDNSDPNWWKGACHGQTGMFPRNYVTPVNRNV
- assayOverview: SH2 binding enrichment of the phosphorylated peptide, bacterial display (enrichment ratio); higher = better substrate or ligand; peptides without Tyr show the background;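 also: peptide library displayed on the E. coli surface as eCPX fusions, selected cells deep-sequenced, score is each peptide's frequency after selection divided by its frequency in the input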

entrySequence | experimentalSystem | SH2 binding enrichment
KDFTKYVAFIE [KDM4B_Y31_N29T_YF] | Grb2 SH2 (UniProt P62993) | 0.894
DFDHSYFFIAT [ESD_Y262_G257D_YF] | Grb2 SH2 (UniProt P62993) | 0.828
SARSAYQEAID [SFN_Y151_M155I] | Grb2 SH2 (UniProt P62993) | 0.896
KGERGYPGTPG [COL4A1_Y348] | Grb2 SH2 (UniProt P62993) | 0.832
ICFSDYVEVAD [PHACTR1_Y525_R521C] | Grb2 SH2 (UniProt P62993) | 0.607
SLAARYFNWVC [FLT4_Y1230_S1235C_YF] | Grb2 SH2 (UniProt P62993) | 2.08
IKNSGYISRYL [EIF2AK3_Y585] | Grb2 SH2 (UniProt P62993) | 1.08
EFLRNYFTDKA [DSG2_Y775] | Grb2 SH2 (UniProt P62993) | 1.03
KDFTKYVAYIE [KDM4B_Y31_N29T] | Grb2 SH2 (UniProt P62993) | 0.966
GMIQAYSSSQR [DES_Y5_S2I] | Grb2 SH2 (UniProt P62993) | 0.872
DFTSRYLSASD [PKHD1_Y828_N830S] | Grb2 SH2 (UniProt P62993) | 0.694
WRGMPYGGRGD [TGM1_Y312_R307W] | Grb2 SH2 (UniProt P62993) | 1.19
MEVEQYIFVKC [CYBB_Y324_G322E] | Grb2 SH2 (UniProt P62993) | 0.725
KMKGDYFRSLA [YWHAG_Y130_Y133S_YF] | Grb2 SH2 (UniProt P62993) | 0.917
EPYEVYRIVPE [IRF8_Y110_K108E] | Grb2 SH2 (UniProt P62993) | 0.981
RVFRDYVLKSA [HTATIP2_Y111_D108Y_YF] | Grb2 SH2 (UniProt P62993) | 0.668
LNECHYGALIG [BPGM_Y92_R90C] | Grb2 SH2 (UniProt P62993) | 0.681
HLEKKYVRRDS [CSF1R_Y708] | Grb2 SH2 (UniProt P62993) | 1.02
TENAGYFFQVS | Grb2 SH2 (UniProt P62993) | 0.61
FGSSSSGGAGG [RPA2_Y14_Y14S_YF] | Grb2 SH2 (UniProt P62993) | 0.854
GHLFANDWISI [BEST1_Y227_Y227N_YF] | Grb2 SH2 (UniProt P62993) | 0.904
EFNINYNNEPP [THG1L_Y228_L232P] | Grb2 SH2 (UniProt P62993) | 0.742
KKYPDYIQIAR [SGMS2_Y59_M64R] | Grb2 SH2 (UniProt P62993) | 1.23
IDDLEYLHSQG [STK11_Y166_G163D] | Grb2 SH2 (UniProt P62993) | 0.615
DAHFTYSRFPW [LY75_Y888_D884A_YF] | Grb2 SH2 (UniProt P62993) | 1.06
IEDNEYTAREG [HCK_Y411] | Grb2 SH2 (UniProt P62993) | 0.803
EQKKFYNATKK [SCN5A_Y1495_M1498T_YF] | Grb2 SH2 (UniProt P62993) | 0.996
SVVVRYEPPEV [TP53_Y220_P219R] | Grb2 SH2 (UniProt P62993) | 0.967
EKQARYEIVEE [CDH5_Y223_V227E] | Grb2 SH2 (UniProt P62993) | 0.897
